src = the supplement of paper PMC6555819

Tested on: LXRa homodimer (NR concentration 270 nM)
Assay: PBM binding z-score (relative to random genomic background probes); higher = stronger binding; sequences stand for … in GC…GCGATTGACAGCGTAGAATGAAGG
metric: PBM binding z-score
Answers are plain numbers.

Some sequences with recorded PBM binding z-score:
chain	PBM binding z-score
TATACAGGGTCAAAGGCCGGAGTACGAATGTCGA	2.37
TCTATTAGATGATTAGGGCAACCGAAACAGCGGA	0.054
ACTTACGGGTCAACGAGGTTATTGCACGCGTATA	1.72
CAAACTAGGTCAAGAGGTTAAAGTCCGCTTCCCG	2.01
GCTTGTAGATCAAGGTGAAGAAAGACTAAGCTAA	-0.489

Below are some sequences; for each one, tell me its PBM binding z-score.
1. CCAGAAAGGTGAGAAGGTAACTCAGCCTCGATTA
2. GCGACTGGCGCAAAGCAGGTTACCATAAGGTTGG

-0.167
-0.662

Below are some sequences; for each one, tell me its PBM binding z-score.
1. CGTTAAAGTTCAACTAAGGTAACGTAAAGCACGC
2. TCCATTAGTTGAAGGGCAACCGACGAGTCCGTTT
3. ACTATTAGGTGACTTAGGGCAACCGATACGACGC
4. ATCTCTACGTAAAAGTTCAGTGAATCCCGAGGAT

4.48
0.397
0.428
1.27

Below are some sequences; for each one, tell me its PBM binding z-score.
1. CAAACTAGGTCACAGAGGTCAATGTCCGTGCGTA
2. CTCGAAAGTTCGTGCTCAGGTGAGTATACCAAAC
3. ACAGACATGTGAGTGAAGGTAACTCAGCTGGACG
4. CCGACTGGGGCAGAATGGTTACCATACCATCCGG

1. 6.83
2. 0.162
3. -0.659
4. -0.449

Below are some sequences; for each one, tell me its PBM binding z-score.
1. CCTACTGCGCCAAAAAGGTCATTGATGCCGATAA
2. ACTCGGAGGACAAGGGTCAGAGCTACGCCAGTGA
3. CGTCCAAGGTGAGAGAGGTCAGTGAATGCCGAGT
4. GATACAGGGTCAGCTAGAGGCTAGAGTATGGAAA
5. AGTCAAAGTTCATCTAGGTAATGTAAGATATGCT
6. CCTAATGGGCCATTCAGAGGTCATTGATCATATG
7. CCGAGTAGGTTATGGGGCATTGAGGCAACGGTGA

[4.24, -0.11, 0.878, -0.262, 5.38, 6.94, -0.265]

Below are some sequences; for each one, tell me its PBM binding z-score.
1. CGTCCAAGGTCAAGGTCAGTCAAAGAGACTCGAA
2. CCTACTGGGCCGCGAAAGGTCATTGATTCAGTGA
3. GCTTGTAGATCAAGGTTAAGATAGACTAAGCTAA

1.64
3.63
-0.0877

Requested field: PBM binding z-score. Item: "AGCCAAAGTTCAGGACGAGGTAACGTAAAGCACG" 1.39

----------
Can you tell me PBM binding z-score for the items I'm about to list?
System: PPARg:RXRa (NR concentration 180 nM, RXRa partner concentration 90 nM)
Assay: PBM binding z-score (relative to random genomic background probes); higher = stronger binding; sequences stand for … in GC…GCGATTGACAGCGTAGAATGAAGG
Give bare numbers.

chain	PBM binding z-score
CATACAGGGTCAGCTAGGCCTGAGTAGGGACGGC	3.11
TAGACTAGGTCATTGGGCCAGTATAGTACGCATC	5.62
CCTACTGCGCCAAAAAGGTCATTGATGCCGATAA	1.47
TCATATAGGTAAACAGTTGAAAGTCCGTAAGTTA	1.53
TCTATTAGTTAATTAGGGCAACCGAAACAGCGGA	2.2
AATACAGGGTCATAGTAGGCCAGAGTACGCACAG	6.42
CCTGCGAGGTCAATGGTCAGCTAAAGCAGCTCGC	5.75
ATATGTAGGTTAAGGGTCATTCAAGTTGGTTCGC	11.5

Below are some sequences; for each one, tell me its PBM binding z-score.
1. TCTAGTTGGTCACGGTGGTCACACACGACGGGTA
2. CCTCGGAGGACAAAAGGAGGTCAGAGCTGCCAGA
3. AATACAGGGTTACTAGGCCAGAGTAGGTACGAAT

1: 1.15; 2: 0.706; 3: 4.79

----------
Test system: PPARg:RXRa 30nM:10nM, anti-RXR (NR concentration 30 nM, RXRa partner concentration 10 nM)
Assay: PBM binding z-score (relative to random genomic background probes); higher = stronger binding; sequences stand for … in GC…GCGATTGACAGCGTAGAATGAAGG
Binning scheme for PBM binding z-score: low group = under -0.3, middle group = from -0.3 up to 1, high group = 1 and over

Examples from the recorded data:
chain	assigned_class
CGAACGACGGCATGAGTTGATAGCAAATGCCGAT	low group
ATATGTAGCTTAGCTGGGGTCATTCAGACTAGGC	middle group
TTTACAGGGTCAAAGGCCAGAGTACGAATGTCGA	high group
GGAACGAGGGCAAGTTGTTAGCAGAGTTTGATGG	middle group
CCTGGCAGGCCAATCTGGGTCACTCAAGGCTTGA	middle group

Which category fits this record: "CCTACTGGGCCAAAGTCATTGATCAGTCAAAGCA" middle group

Which category fits this record: "ATCGAAAGGTCGAAGGTGTGTATACCCACCCGAA" high group

Which category fits this record: "CCTCGGAGGACAGAACGTCAGAGCTGTCCGCTTT" low group

----------
Test system: RARb:RXRa (NR concentration 270 nM, RXRa partner concentration 90 nM)
Test: PBM binding z-score (relative to random genomic background probes); higher = stronger binding; sequences stand for … in GC…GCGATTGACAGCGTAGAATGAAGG
Binning scheme for PBM binding z-score: bottom end = under 1, midrange = from 1 up to 3, top end = 3 and over

Examples from the recorded data:
chain	assigned_class
TCTCGGAGGCCACGAAAGGTCAGAGCTCGACATC	top end
TTACCAAGGTGAAGGTCGTTGTTCCCTCTGTAGA	midrange
CGAACTAGATCATTGACAGGACAGTGAATAGTAA	bottom end

Which category fits this record: "GCGACTGGGGCATCAGCAGGCTACCATAACTTAA" bottom end

Which category fits this record: "CCTCGGAGGACAACAGGAGGTGAGAGCTGCCAGA" midrange

Which category fits this record: "CAAACTAGGTCAAGAGGTCAAATTCCGCTTCCCG" top end

Which category fits this record: "GGAACCAGGGCAAAGTTGATAGCATCTGTCGACG" midrange

Which category fits this record: "ATCTCTAGGTAAAGATAGTTCAGTAAATGCAAAT" bottom end

Which category fits this record: "GCTAGCAGGGCATTTGGGTCACTCAATGACGGGC" midrange

Which category fits this record: "CAAACTACGTCACCGGAAGGTCAAAGTCCGCATG" top end

Which category fits this record: "AGTCAATGTTCATCTAGGTAACGTAAGATATGCT" bottom end

Which category fits this record: "CCGACTGGGGCATTAGGTTACCATAAGCCAGCCC" bottom end

Which category fits this record: "ACTACCAGGCCAAGTTTGGGTCACTCAAACAAAG" midrange

Which category fits this record: "ACAGACAGGTGAGTGTAGGTAACTCAGCTGGACG" bottom end

Which category fits this record: "GTACCAAGGTGACTAGGTCGTTGATGAGTAGGCG" midrange

Which category fits this record: "ACTATTAGTTGAGACGAGGGCAACCGCTAGGTTG" midrange

Which category fits this record: "TCTAGTTGGTCAAAGGTCACACGCTCGAAATGCG" top end

Which category fits this record: "ACTGGCAGGCCAAGTTTGGGTCACTCAAACAAAG" midrange

Which category fits this record: "CCTAGCAGGCTAGGGTCACTCAAGCATTTCGCTT" midrange

Which category fits this record: "GCCCGGAGGACAAGGTCAGAGCTTTGTCCGTAGA" top end

Which category fits this record: "AATACAGGGTCATCGTAGGCCGGAGTACGCACAG" top end

----------
Can you tell me PBM binding z-score for the items I'm about to list?
System: RXRa DBDmut IVT, anti-RXR (DBD mutation: RXRa K156A/R161A, NR concentration 90 nM)
Assay: PBM binding z-score (relative to random genomic background probes); higher = stronger binding; sequences stand for … in GC…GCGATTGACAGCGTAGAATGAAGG
Numbers only.

Some sequences with recorded PBM binding z-score:
chain	recorded_number
CTCGAAAGGTCGGTTGAGGTGCGTATACGGATAA	0.676
TGAATGAGGTTATAAGATCAGTGAACGTTGCAAA	0.773
CAAACTAGCTCAAGGTCAAAGTCGGTTTGTGCCA	2.23
CCAGACAGGAGAGAAGGTAACTCAGCCTCGATTA	0.0336
CCTTAAGGGTCACTCCAGGTTATAGCATCGGAGT	3.27
AGTCAAAGTTCGTCTAGGTAACGTAAGATATGCT	3.25
AGAATGAGGTTCTTAAGATCAGGGAATTGCGGTC	0.301
GCATATAGGTAATACAAGGTGACAGTCCGATTGT	0.299
TCATATAGGTAATACAGGTGAAAGCCGGCATCTA	1.69
GCTTGTAGATCAACGTTAAGAAAGACTAAGCTAA	0.0501

Below are some sequences; for each one, tell me its PBM binding z-score.
1. TTACCGAGGTGAAGGTCGTTGATCCCTCTGTAGA
2. GCAACGAGGGCAAAGTTGATAGCATCTGTCGACG
3. TCTCGGAGCACACGAAGGTCAGAGCTTTCCAGAG
4. CCTTACGGGTCACTCCAGTTTATAGCATCGGAGT
5. CCAGACAGGTGAAAGGTAAATCAGTCTGGTACGC

1. -0.12
2. 2.62
3. -0.242
4. 1.78
5. -0.121

Below are some sequences; for each one, tell me its PBM binding z-score.
1. TAGCCTAGATCAGATCGGGCCAGTATACGCTATA
2. CGTCCAAGGTCAGAGAGGACAGTGAATGCCGAGT
3. TCTTGTAGATCAAAGGTTAAGAAGGCCGAAGCCT
4. TCACACAGGTGAAGGTAACTCAGGTACGCAGTCG

1. -1.09
2. 2.6
3. 0.627
4. 0.879

Below are some sequences; for each one, tell me its PBM binding z-score.
1. TTGAGTAGGTTAGTCGGGGCATTCAGCCAACATA
2. ACTATTTGTTGAGACGAGGGCAACCGATAGGTTG
3. CCTACTGGGCCAAAGGTCATTGTTTCCAATGCTC

1. 0.265
2. 0.884
3. 1.26
